System: E. coli MG 1655
Assay: Antibacterial MIC, CLSI broth microdilution
Type: cell-based
Details: Escherichia coli, MG1655; 35° C., 18-24 hours

| compound | subject_of_test | MIC |
| --- | --- | --- |
| C[C@H]1c2cccc(O)c2C(=O)C2=C(O)[C@]3(O)C(=O)C(C(N)=O)=C(O)[C@@H](N(C)C)[C@@H]3[C@@H](O)[C@@H]21 [Doxycycline, reference compound] | E. coli MG 1655 | < 4 µg/mL |
| CON(C)Cc1ccc(O)c2c1C[C@H]1C[C@H]3[C@@H](N(C)C)C(O)=C(C(N)=O)C(=O)[C@@]3(O)C(O)=C1C2=O [Y] | E. coli MG 1655 | > 8 µg/mL |
| CN(C)[C@H]1C(O)=C(C(N)=O)C(=O)[C@@]2(O)C(O)=C3C(=O)c4c(O)ccc(CNOCCF)c4C[C@H]3C[C@@H]12 [EB] | E. coli MG 1655 | > 8 µg/mL |
| CCONCc1ccc2c(c1O)C(=O)C1=C(O)[C@]3(O)C(=O)C(C(N)=O)=C(O)[C@@H](N(C)C)[C@@H]3C[C@@H]1C2 [GM] | E. coli MG 1655 | > 8 µg/mL |
| CCO/N=C(/C)c1ccc(O)c2c1C[C@H]1C[C@H]3[C@H](N(C)C)C(O)=C(C(N)=O)C(=O)[C@@]3(O)C(O)=C1C2=O [A] | E. coli MG 1655 | 4 to 8 µg/mL |
| CN(C)CC/C(=N\OC(C)(C)C)c1ccc(O)c2c1C[C@H]1C[C@H]3[C@H](N(C)C)C(O)=C(C(N)=O)C(=O)[C@@]3(O)C(O)=C1C2=O [O] | E. coli MG 1655 | < 4 µg/mL |
| CN(C)[C@@H]1C(O)=C(C(N)=O)C(=O)[C@@]2(O)C(O)=C3C(=O)c4c(O)ccc(CNOCCF)c4C[C@H]3C[C@@H]12 [DW] | E. coli MG 1655 | > 8 µg/mL |
| CON(C)Cc1ccc(O)c2c1C[C@H]1C[C@H]3[C@H](N(C)C)C(O)=C(C(N)=O)C(=O)[C@@]3(O)C(O)=C1C2=O [P] | E. coli MG 1655 | 4 to 8 µg/mL |
| CCO/N=C(\C)c1cc(CNCC(C)(C)C)c(O)c2c1C[C@H]1C[C@H]3[C@H](N(C)C)C(O)=C(C(N)=O)C(=O)[C@@]3(O)C(O)=C1C2=O [N] | E. coli MG 1655 | 4 to 8 µg/mL |
| CN(C)[C@@H]1C(O)=C(C(N)=O)C(=O)[C@@]2(O)C(O)=C3C(=O)c4c(O)ccc(/C=N/NC(C)(C)C)c4C[C@H]3C[C@@H]12 [X] | E. coli MG 1655 | < 4 µg/mL |
| CN(C)[C@@H]1C(O)=C(C(N)=O)C(=O)[C@@]2(O)C(O)=C3C(=O)c4c(O)ccc(-c5cnoc5)c4C[C@H]3C[C@@H]12 [K] | E. coli MG 1655 | < 4 µg/mL |
| CN(C)[C@@H]1C(O)=C(C(N)=O)C(=O)[C@@]2(O)C(O)=C3C(=O)c4cccc(-c5ncccn5)c4C[C@H]3C[C@@H]12 [S] | E. coli MG 1655 | > 8 µg/mL |

====

Recorded measurements of MIC, one per entry
Tested on: E. coli MG 1655
measured_endpoint: MIC

| molecule | meas_value |
| --- | --- |
| CN(C)c1cc(C#N)c(O)c2c1C[C@H]1C[C@H]3[C@H](N(C)C)C(O)=C(C(N)=O)C(=O)[C@@]3(O)C(O)=C1C2=O [B] | > 8 µg/mL |
| CN(C)[C@@H]1C(O)=C(C(N)=O)C(=O)[C@@]2(O)C(O)=C3C(=O)c4c(O)ccc(-c5nccs5)c4C[C@H]3C[C@@H]12 [L] | < 4 µg/mL |
| CN(C)[C@H]1C(O)=C(C(N)=O)C(=O)[C@@]2(O)C(O)=C3C(=O)c4c(O)ccc(CNOCC(F)(F)F)c4C[C@H]3C[C@@H]12 [EA] | > 8 µg/mL |
| CCO/N=C(\C)c1cc(N)c(O)c2c1C[C@H]1C[C@H]3[C@H](N(C)C)C(O)=C(C(N)=O)C(=O)[C@@]3(O)C(O)=C1C2=O [M] | 4 to 8 µg/mL |
| CN(C)[C@@H]1C(O)=C(C(N)=O)C(=O)[C@@]2(O)C(O)=C3C(=O)c4c(O)ccc(-c5ncco5)c4C[C@H]3C[C@@H]12 [J] | < 4 µg/mL |
| CCON(C)Cc1ccc(O)c2c1C[C@H]1C[C@H]3[C@H](N(C)C)C(O)=C(C(N)=O)C(=O)[C@@]3(O)C(O)=C1C2=O [AE] | > 8 µg/mL |
| CN(C)[C@@H]1C(O)=C(C(N)=O)C(=O)[C@@]2(O)C(O)=C3C(=O)c4c(O)ccc(/C=N/n5cccc5)c4C[C@H]3C[C@@H]12 [AC] | > 8 µg/mL |
| CN(C)[C@H]1C(O)=C(C(N)=O)C(=O)[C@@]2(O)C(O)=C3C(=O)c4cccc(-c5ncccn5)c4C[C@H]3C[C@@H]12 [H] | > 8 µg/mL |
| CN(C)[C@@H]1C(O)=C(C(N)=O)C(=O)[C@@]2(O)C(O)=C3C(=O)c4c(O)ccc(CN5CCCO5)c4C[C@H]3C[C@@H]12 [U] | 4 to 8 µg/mL |
| CN(C)[C@@H]1C(O)=C(C(N)=O)C(=O)[C@@]2(O)C(O)=C3C(=O)c4c(O)ccc(CN5OCCC5=N)c4C[C@H]3C[C@@H]12 [EC] | > 8 µg/mL |
| CN(C)c1cccc2c1C[C@H]1C[C@H]3[C@H](N(C)C)C(O)=C(C(N)=O)C(=O)[C@@]3(O)C(O)=C1C2=O [C] | > 8 µg/mL |
| CN(C)[C@@H]1C(O)=C(C(N)=O)C(=O)[C@@]2(O)C(O)=C3C(=O)c4c(O)ccc(CNOCC(F)F)c4C[C@H]3C[C@@H]12 [DX] | 4 to 8 µg/mL |

====

Listed compounds paired with reported IC50 at 24 h
Experiment: in vitro
Type: cell-based
Conditions: Chinese hamster
measured_endpoint: IC50 at 24 h

| compound | measured_endpoint | meas_value |
| --- | --- | --- |
| CN(C)c1cccc2c1C[C@H]1C[C@H]3[C@H](N(C)C)C(O)=C(C(N)=O)C(=O)[C@@]3(O)C(O)=C1C2=O [C] | IC50 at 24 h | > 75 mg/L |
| CON(C)Cc1ccc2c(c1O)C(=O)C1=C(O)[C@]3(O)C(=O)C(C(N)=O)=C(O)[C@@H](N(C)C)[C@@H]3C[C@@H]1C2 [GL] | IC50 at 24 h | 35 to 75 mg/L |
| CN(C)[C@@H]1C(O)=C(C(N)=O)C(=O)[C@@]2(O)C(O)=C3C(=O)c4c(O)ccc(/C=N/NC(C)(C)C)c4C[C@H]3C[C@@H]12 [X] | IC50 at 24 h | < 35 mg/L |
| C=CCN(Cc1ccc(O)c2c1C[C@H]1C[C@H]3[C@H](N(C)C)C(O)=C(C(N)=O)C(=O)[C@@]3(O)C(O)=C1C2=O)C(=O)OC [F] | IC50 at 24 h | < 35 mg/L |
| CC(=O)c1cccc2c1C[C@H]1C[C@H]3[C@H](N(C)C)C(O)=C(C(N)=O)C(=O)[C@@]3(O)C(O)=C1C2=O [E] | IC50 at 24 h | > 75 mg/L |
| CCONCc1ccc2c(c1O)C(=O)C1=C(O)[C@]3(O)C(=O)C(C(N)=O)=C(O)[C@@H](N(C)C)[C@@H]3C[C@@H]1C2 [GM] | IC50 at 24 h | < 35 mg/L |
| CCONCc1ccc(O)c2c1C[C@H]1C[C@H]3[C@H](N(C)C)C(O)=C(C(N)=O)C(=O)[C@@]3(O)C(O)=C1C2=O [AA] | IC50 at 24 h | > 75 mg/L |
| CCNN(CC)Cc1ccc(O)c2c1C[C@H]1C[C@H]3[C@H](N(C)C)C(O)=C(C(N)=O)C(=O)[C@@]3(O)C(O)=C1C2=O [Z] | IC50 at 24 h | > 75 mg/L |
| CN(C)[C@@H]1C(O)=C(C(N)=O)C(=O)[C@@]2(O)C(O)=C3C(=O)c4c(O)ccc(CNOCC(F)F)c4C[C@H]3C[C@@H]12 [DX] | IC50 at 24 h | 35 to 75 mg/L |
| C[C@H]1c2cccc(O)c2C(=O)C2=C(O)[C@]3(O)C(=O)C(C(N)=O)=C(O)[C@@H](N(C)C)[C@@H]3[C@@H](O)[C@@H]21 [Doxycycline, reference compound] | IC50 at 24 h | > 75 mg/L |
| CN(C)CC/C(=N\OC(C)(C)C)c1ccc(O)c2c1C[C@H]1C[C@H]3[C@H](N(C)C)C(O)=C(C(N)=O)C(=O)[C@@]3(O)C(O)=C1C2=O [O] | IC50 at 24 h | < 35 mg/L |
| C=CCONCc1ccc(O)c2c1C[C@H]1C[C@H]3[C@H](N(C)C)C(O)=C(C(N)=O)C(=O)[C@@]3(O)C(O)=C1C2=O [AF] | IC50 at 24 h | 35 to 75 mg/L |
| CN(C)[C@@H]1C(O)=C(C(N)=O)C(=O)[C@@]2(O)C(O)=C3C(=O)c4c(O)ccc(-c5ccc[nH]5)c4C[C@H]3C[C@@H]12 [T] | IC50 at 24 h | < 35 mg/L |
| CN(C)[C@@H]1C(O)=C(C(N)=O)C(=O)[C@@]2(O)C(O)=C3C(=O)c4c(O)ccc(CNOC(C)(C)C)c4C[C@H]3C[C@@H]12 [AB] | IC50 at 24 h | < 35 mg/L |
| CN(C)[C@H]1C(O)=C(C(N)=O)C(=O)[C@@]2(O)C(O)=C3C(=O)c4cccc(-c5ncccn5)c4C[C@H]3C[C@@H]12 [H] | IC50 at 24 h | > 75 mg/L |
| CNc1c(-c2ccc(O)c3c2C[C@H]2C[C@H]4[C@H](N(C)C)C(O)=C(C(N)=O)C(=O)[C@@]4(O)C(O)=C2C3=O)c(=O)c1=O [AD] | IC50 at 24 h | < 35 mg/L |
| CON(C)Cc1ccc(O)c2c1C[C@H]1C[C@H]3[C@H](N(C)C)C(O)=C(C(N)=O)C(=O)[C@@]3(O)C(O)=C1C2=O [P] | IC50 at 24 h | > 75 mg/L |
| CC(=O)c1cccc2c1C[C@H]1C[C@H]3[C@@H](N(C)C)C(O)=C(C(N)=O)C(=O)[C@@]3(O)C(O)=C1C2=O [D] | IC50 at 24 h | > 75 mg/L |
| CN(C)[C@H]1C(O)=C(C(N)=O)C(=O)[C@@]2(O)C(O)=C3C(=O)c4c(O)ccc(CNOCC(F)F)c4C[C@H]3C[C@@H]12 [DY] | IC50 at 24 h | > 75 mg/L |
| CN(C)c1ccc(O)c2c1C[C@H]1C[C@H]3[C@H](N(C)C)C(O)=C(C(N)=O)C(=O)[C@@]3(O)C(O)=C1C2=O [Minocycline, reference compound] | IC50 at 24 h | > 75 mg/L |
| CCO/N=C(\C)c1cc(CNCC(C)(C)C)c(O)c2c1C[C@H]1C[C@H]3[C@H](N(C)C)C(O)=C(C(N)=O)C(=O)[C@@]3(O)C(O)=C1C2=O [N] | IC50 at 24 h | > 75 mg/L |
| CN(C)[C@@H]1C(O)=C(C(N)=O)C(=O)[C@@]2(O)C(O)=C3C(=O)c4c(O)ccc(-c5cnoc5)c4C[C@H]3C[C@@H]12 [K] | IC50 at 24 h | < 35 mg/L |
| CN(C)[C@@H]1C(O)=C(C(N)=O)C(=O)[C@@]2(O)C(O)=C3C(=O)c4cccc(-c5ncccn5)c4C[C@H]3C[C@@H]12 [S] | IC50 at 24 h | > 75 mg/L |
| CCONCc1ccc(O)c2c1C[C@H]1C[C@H]3[C@@H](N(C)C)C(O)=C(C(N)=O)C(=O)[C@@]3(O)C(O)=C1C2=O [AM] | IC50 at 24 h | > 75 mg/L |
